- TARGET DESC: T1, human soluble ULBP6 haplotype 02 (hULBP6_02) (human, UniProt Q5VY80 26-218)
- T1 construct: also called sULBP6_02
- T1 chain: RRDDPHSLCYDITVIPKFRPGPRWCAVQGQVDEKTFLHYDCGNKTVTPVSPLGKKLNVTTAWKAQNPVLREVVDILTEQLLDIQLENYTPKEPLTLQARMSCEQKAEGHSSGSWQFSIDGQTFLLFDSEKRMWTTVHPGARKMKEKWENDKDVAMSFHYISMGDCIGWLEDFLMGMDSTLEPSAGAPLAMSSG
- PROTOCOL SUMMARY: SPR (BIACORE 8K, 37 C); antibody captured on Protein A, soluble ULBP injected;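 further: ligand injected as threefold dilution series in HBS-P (highest 10 or 50 nM), reference-cell and buffer-subtracted sensorgrams fitted with a 1:1 Langmuir model for on and off rates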
METRIC NAME: pKd
One number for each entry, as −log10 of the molar value.

Recorded results for 3 binders are shown here.
-- ask Given the binder humanized 6E1 (h6E1), Fc version not stated (antibody, V domains shown, Recombinant humanized antibody, hIgG1 backbone with kappa light chain; also called hu6E1; PUR3993) VH: EVQLVQSGAEVKKPGASVKVSCKASGYTFTNYWMHWMRQAPGQGLEWLGRIHPSDSDTNYNQKFKGRATLTVDKSISTAYMELSRLRSDDTAVYYCAIEGTGKGYFDVWGRGTLVTVSS VL: DIQMTQSPSSLSASVGDRVTITCKASQDIYSYLSWFQQKPGKSPKTLIYRANRLVDGVPSRFSGSGSGQDFTLTISSLQPEDFATYYCLHYDEFPLTFGGGTKVEIK , what is its reported pKd?
-- reply 9.03

-- ask Using the record for humanized 7B3 (h7B3), Fc version not stated (antibody, V domains shown, Recombinant humanized antibody, hIgG1 backbone with kappa light chain; also called hu7B3; PUR3922) VH: EVQLVESGGGLVQPGGSLRLSCAASGFTFSTYGFHWVRQAPGKGLEWVAYISSNSGTIDYADTVKGRFTISRDNAKNSLYLQMNSLRAEDTAVYYCARQGYGFDNWGQGTTVTVSS VL: DIQLTQSPSSLSASVGDRVTITCSASSRVSYMNWYQQKPGKSPKIWVYGISNLASGVPSRFSGSGSGTDFTFTISSLQPEDIATYYCQQRSSHPLTFGGGTKVEIK , report its pKd.
-- reply 9.59

-- ask // pKd lookup, key: humanized 1D4 (h1D4), Fc version not stated (antibody, V domains shown, Recombinant humanized antibody, hIgG1 backbone with kappa light chain; also called hiD4; hu1D4) VH: EIQLVQSGSELKKPGASVKVSCKASGYTFTEYPIHWVRQAPGQGFEWMGMIYTDTGEPTHAEEFKGRFVFSLDTSVSTAYLQISSLKAEDTAVYFCVRWYDGSSYIMDYWGQGTTVTVSS VL: DIQMTQSPSSLSASVGDRVTITCKASQDINSYLSWFQQKPGKSPKTLIYRANRLVDGVPSRFSGSGSGQDYTFTISSLQPEDIATYYCLQYDEFPLTFGGGTKVEIK
-- reply 8.88

Further cases:
-- ask Looking for the measured pKd of humanized 8E11 (h8E11), Fc version not stated (antibody, V domains shown, Recombinant humanized antibody, hIgG1 backbone with kappa light chain; also called PUR3926) VH: EVQLVESGGGLVQPGGSLRLSCAASGFTFRTYGMHWVRQAPGKGLEWVAYISSGSGTIDYADTVKGRFTISRDNAKNSLYLQMNSLRAEDTAVYYCTRQTGAMDYWGQGTLVTVSS VL: EIVLTQSPATLSLSPGERATLSCSASSSVSYMNWYQQKPGQSPRLWIYGISNLASGVPARFSGSGSGTDFTLTISSLEPEDFAVYYCQQRSSHPLTFGGGTKVEIK , can you help?
-- reply 9.42
